- Tested on: NCI-H358
- TEST_DESCRIPTION: relative viability (nuclei count vs DMSO), 5 days (fraction); higher = more cells survive
- CONDITION_CONTEXT: first compound 0.3162 µM
Each entry below lists one item and its recorded relative viability value.

Ask: Bench note: what relative viability did CCN(CC)CCCCNc1ncc2cc(-c3cc(OC)cc(OC)c3)c(NC(=O)NC(C)(C)C)nc2n1 + COc1cc2c(Oc3ccc(NC(=O)C4(C(=O)Nc5ccc(F)cc5)CC4)cc3F)ccnc2cc1OCCCN1CCOCC1 [Foretinib] (partner 0.25 µM) show?
Reply: 0.815

Ask: # query: relative viability of entry CCN(CC)CCCCNc1ncc2cc(-c3cc(OC)cc(OC)c3)c(NC(=O)NC(C)(C)C)nc2n1 + Cc1nc(NC(=O)N2CCC[C@H]2C(N)=O)sc1-c1ccnc(C(C)(C)C(F)(F)F)c1 [Alpelisib] (partner 2 µM)
Reply: 0.848

Ask: Report relative viability for O=c1cc(N2CCOCC2)oc2c(-c3cccc4c3sc3ccccc34)cccc12 + Nc1ncn([C@H]2C[C@H](O)[C@@H](CO)O2)c(=O)n1 [Decitabine] (partner 2 µM) please.
Reply: 0.21

Continuing:
Ask: Consider the molecule CCN(CC)CCCCNc1ncc2cc(-c3cc(OC)cc(OC)c3)c(NC(=O)NC(C)(C)C)nc2n1 + Cc1cc(Nc2cc(N3CCN(C)CC3)nc(Sc3ccc(NC(=O)C4CC4)cc3)n2)n[nH]1 [Tozasertib] (partner 0.1 µM) and give its measured relative viability.
Reply: 0.104

Source listed as the supplement of paper PMC10307832.
